- METHOD NOTES: solubility in ethanol by conventional methods
- Format: physicochemical
- ASSAY CONDITIONS: organic solvent or mixture, separate experiments by conventional methods

MOLECULE | solubility (mg/mL)
Cc1noc(NS(=O)(=O)c2ccc(N)cc2)c1C [sulfisoxazole] | 16
